B1: FBXO3 (parent)
chain: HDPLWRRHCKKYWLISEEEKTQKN

- Variants of: B1
- run.description: protein stability index of a GFP-peptide fusion (GPS, HEK-293T) (PSI 1-6); higher = more stable;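 further: lentivirally expressed fusions sorted by FACS into six bins by GFP to DsRed ratio, PSI derived from sequencing read proportions per bin multiplied by bin number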
- condition.parameters: c terminus: a fixed tail appended
We use 3 as the dividing line for protein stability index: on or above the line is true, below is false.

Consider the following illustrative entries.
Threshold query (protein stability index >= 3) on T21P true

# check: protein stability index of Y12D is greater than or equal to 3 true

Textbook exercise: given the entry W5L , state whether its protein stability index is greater than or equal to 3. true

Record H1L ; criterion: protein stability index no lower than 3. Met? true

Say whether C9W shows protein stability index of 3 or more. true

Does protein stability index meet or surpass 3 for H1N ? true

Reported protein stability index reaches at least 3 for K23M ? true

Textbook exercise: given the entry E17F , state whether its protein stability index is greater than or equal to 3. false

***
Could you please find out whether H1V has protein stability index that meets 3 or exceeds it? true

Could you verify whether the entry H8M shows protein stability index of no less than 3? false

Is reported protein stability index greater than or equal to 3 here: D2I false

Hi, just wondering whether K11L shows protein stability index of 3 or higher. false

protein stability index >= 3 for R7E ? true

Is protein stability index for N24W at or above 3? false

# check: protein stability index of E18I is greater than or equal to 3 false

Has W5A a recorded protein stability index greater than or equal to 3? true

Data origin: the supplement of paper PMC10567573
